# Tested on: Woodchuck hepatitis virus
# METHOD DESCRIPTION: Antiviral activity against Woodchuck hepatitis virus infected in woodchuck assessed as reduction of viral DNA replicative intermediate level per ug of total cell DNA at 15 mg/kg, po qd for 48 weeks measured on 60th week (reference value: 979 pg)
# Format: functional
I'd appreciate it if you could supply Activity values for the items below.
Your answer is read as pg, so omit the unit and give the number.

Sample Nc1nc(=O)n([C@@H]2CS[C@H](CO)O2)cc1F [EMTRICITABINE] — what was its Activity?
1239

Sample CC(C)OC(=O)OCOP(=O)(CO[C@H](C)Cn1cnc2c(N)ncnc21)OCOC(=O)OC(C)C.O=C(O)/C=C/C(=O)O [TENOFOVIR DISOPROXIL FUMARATE] — what was its Activity?
1374

Sample CC(C)(C)C(=O)OCOP(=O)(COCCn1cnc2c(N)ncnc21)OCOC(=O)C(C)(C)C [ADEFOVIR DIPIVOXIL] — what was its Activity?
1147

Sample Nc1ccn([C@@H]2CS[C@H](CO)O2)c(=O)n1 [LAMIVUDINE] — what was its Activity?
1063

====

# System: Woodchuck hepatitis virus
# METHOD DESCRIPTION: Antiviral activity against Woodchuck hepatitis virus infected in woodchuck assessed as reduction of viral DNA replicative intermediate level per ug of total cell DNA at 15 mg/kg, po qd measured on 36th week on 48 weeks study (reference value: 1132 +/- 738 pg)
# Format: functional
REPORTED ENDPOINT: Activity (pg)
Your answer is read as pg, so omit the unit and give the number.

Sample `CC(C)(C)C(=O)OCOP(=O)(COCCn1cnc2c(N)ncnc21)OCOC(=O)C(C)(C)C` — what was its Activity?
324

Sample `Nc1nc(=O)n([C@@H]2CS[C@H](CO)O2)cc1F` — what was its Activity?
644

Sample CC(C)OC(=O)OCOP(=O)(CO[C@H](C)Cn1cnc2c(N)ncnc21)OCOC(=O)OC(C)C.O=C(O)/C=C/C(=O)O [TENOFOVIR DISOPROXIL FUMARATE] — what was its Activity?
443

Sample `Nc1ccn([C@@H]2CS[C@H](CO)O2)c(=O)n1` — what was its Activity?
1133

====

# Test system: Marmota monax
# METHOD DESCRIPTION: Toxicity in Woodchuck hepatitis virus infected woodchuck assessed as increase of liver sorbitol dehydrogenase activity at 15 mg/kg, po qd measured on 28 to 48 weeks on 48 week study
# Type: organism-based
# Parameters: dose 15 mg/kg, route oral
# MEASUREMENT CONDITIONS: in vivo
REPORTED ENDPOINT: Activity

* CC(C)(C)C(=O)OCOP(=O)(COCCn1cnc2c(N)ncnc21)OCOC(=O)C(C)(C)C | Toxic
* Nc1nc(=O)n([C@@H]2CS[C@H](CO)O2)cc1F | Toxic
* Nc1ccn([C@@H]2CS[C@H](CO)O2)c(=O)n1 | Toxic
* CC(C)OC(=O)OCOP(=O)(CO[C@H](C)Cn1cnc2c(N)ncnc21)OCOC(=O)OC(C)C.O=C(O)/C=C/C(=O)O [TENOFOVIR DISOPROXIL FUMARATE] | Toxic

====

I'd appreciate it if you could supply Activity values for the items below.
# System: Woodchuck hepatitis virus
# METHOD DESCRIPTION: Antiviral activity against Woodchuck hepatitis virus infected in woodchuck assessed as reduction of viral antigen positive hepatocytes at 15 mg/kg, po qd for 48 weeks study (reference value: 35 +/- 27 %)
# Type: functional, Hepatocyte
# Parameters: scale not given: the % may be the effect or the level left
Your answer is read as %, so omit the unit and give the number.

Sample `Nc1nc(=O)n([C@@H]2CS[C@H](CO)O2)cc1F` — what was its Activity?
40

Sample `Nc1ccn([C@@H]2CS[C@H](CO)O2)c(=O)n1` — what was its Activity?
36

Sample `CC(C)(C)C(=O)OCOP(=O)(COCCn1cnc2c(N)ncnc21)OCOC(=O)C(C)(C)C` — what was its Activity?
13

Sample CC(C)OC(=O)OCOP(=O)(CO[C@H](C)Cn1cnc2c(N)ncnc21)OCOC(=O)OC(C)C.O=C(O)/C=C/C(=O)O [TENOFOVIR DISOPROXIL FUMARATE] — what was its Activity?
26
